What kcat/Km was measured for each of the following?
Substrate: CC(=O)CC(=O)SCCNC(=O)CCNC(=O)[C@H](O)C(C)(C)COP(=O)(O)OP(=O)(O)OC[C@H]1O[C@@H](n2cnc3c(N)ncnc32)[C@H](O)[C@@H]1OP(=O)(O)O
assay-details: purified protein
Type: biochemical, Caenorhabditis elegans
measurement-setup: 100 µM NADH (saturating), 0.1 M citrate/phosphate pH 7.0, 0.1 mM dithiothreitol, 298 K, 23 nM protein, AACoA 30-70 µM, 25.0 °C
Give a bare numeral; the unit M⁻¹ s⁻¹ is implied.

// field: kcat/Km; key: 3-hydroxyacyl-CoA dehydrogenase from C. elegans, R204A mutant (enzyme, Caenorhabditis elegans, 3-hydroxyacyl-CoA dehydrogenase (cHAD), Caenorhabditis elegans, WormBase WBGene00010035, GenBank CAA80153.1; as m1 with R204A; Made by overlapping PCR from the wild type plasmid, ligated into pEXS-CG (BamHI, EcoRI); also called cHAD R204A; source: E. coli BL21 (DE3), purified (same procedure as the wild type); not shown: GST, C-terminal, cleaved) MFTAKCAMQNIRNVAIVGSGQMGSGIAQVTASSGFNVMLADVNKKALDRAMKAISQSVTHLSKKQKGTDKEKSDFVTLTMSRIKTCNNVSTAVADADLIIEAAIENIDLKRGIFAQIEQSCKKDSILTTNTSSFLLEDVAKGLQDKTRFGGLHFFNPVPVMKLLEVIRSDDTSDETYATLIKFGTAVGKTTVACKDSPGFIVNALLIPYFFEAARMYERGDASMTDIDEAMKLGAGHPMGPFELADYIGLDTVKFVMDGWAAKYPEVQLFEASPLVDKLVAEGKLGRKTGDGFYSYKK ; value = 300000

// field: kcat/Km; key: 3-hydroxyacyl-CoA dehydrogenase from C. elegans, Y209A mutant (enzyme, Caenorhabditis elegans, 3-hydroxyacyl-CoA dehydrogenase (cHAD), Caenorhabditis elegans, WormBase WBGene00010035, GenBank CAA80153.1; as m1 with Y209A; Made by overlapping PCR from the wild type plasmid, ligated into pEXS-CG (BamHI, EcoRI); also called cHAD Y209A; source: E. coli BL21 (DE3), purified (same procedure as the wild type); not shown: GST, C-terminal, cleaved) MFTAKCAMQNIRNVAIVGSGQMGSGIAQVTASSGFNVMLADVNKKALDRAMKAISQSVTHLSKKQKGTDKEKSDFVTLTMSRIKTCNNVSTAVADADLIIEAAIENIDLKRGIFAQIEQSCKKDSILTTNTSSFLLEDVAKGLQDKTRFGGLHFFNPVPVMKLLEVIRSDDTSDETYATLIKFGTAVGKTTVACKDSPGFIVNRLLIPAFFEAARMYERGDASMTDIDEAMKLGAGHPMGPFELADYIGLDTVKFVMDGWAAKYPEVQLFEASPLVDKLVAEGKLGRKTGDGFYSYKK ; value = 300000

// field: kcat/Km; key: 3-hydroxyacyl-CoA dehydrogenase from C. elegans, R204A/Y209A mutant (enzyme, Caenorhabditis elegans, 3-hydroxyacyl-CoA dehydrogenase (cHAD), Caenorhabditis elegans, WormBase WBGene00010035, GenBank CAA80153.1; as m1 with R204A and Y209A; Made by overlapping PCR from the wild type plasmid, ligated into pEXS-CG (BamHI, EcoRI); also called cHAD R204A/Y209A; source: E. coli BL21 (DE3), purified (same procedure as the wild type); not shown: GST, C-terminal, cleaved) MFTAKCAMQNIRNVAIVGSGQMGSGIAQVTASSGFNVMLADVNKKALDRAMKAISQSVTHLSKKQKGTDKEKSDFVTLTMSRIKTCNNVSTAVADADLIIEAAIENIDLKRGIFAQIEQSCKKDSILTTNTSSFLLEDVAKGLQDKTRFGGLHFFNPVPVMKLLEVIRSDDTSDETYATLIKFGTAVGKTTVACKDSPGFIVNALLIPAFFEAARMYERGDASMTDIDEAMKLGAGHPMGPFELADYIGLDTVKFVMDGWAAKYPEVQLFEASPLVDKLVAEGKLGRKTGDGFYSYKK ; value = 90000
